Target: ALK (Homo sapiens, UniProt Q9UM73)
Construct: purchased Reaction Biology Corp
Sequence (Q9UM73 19-1620): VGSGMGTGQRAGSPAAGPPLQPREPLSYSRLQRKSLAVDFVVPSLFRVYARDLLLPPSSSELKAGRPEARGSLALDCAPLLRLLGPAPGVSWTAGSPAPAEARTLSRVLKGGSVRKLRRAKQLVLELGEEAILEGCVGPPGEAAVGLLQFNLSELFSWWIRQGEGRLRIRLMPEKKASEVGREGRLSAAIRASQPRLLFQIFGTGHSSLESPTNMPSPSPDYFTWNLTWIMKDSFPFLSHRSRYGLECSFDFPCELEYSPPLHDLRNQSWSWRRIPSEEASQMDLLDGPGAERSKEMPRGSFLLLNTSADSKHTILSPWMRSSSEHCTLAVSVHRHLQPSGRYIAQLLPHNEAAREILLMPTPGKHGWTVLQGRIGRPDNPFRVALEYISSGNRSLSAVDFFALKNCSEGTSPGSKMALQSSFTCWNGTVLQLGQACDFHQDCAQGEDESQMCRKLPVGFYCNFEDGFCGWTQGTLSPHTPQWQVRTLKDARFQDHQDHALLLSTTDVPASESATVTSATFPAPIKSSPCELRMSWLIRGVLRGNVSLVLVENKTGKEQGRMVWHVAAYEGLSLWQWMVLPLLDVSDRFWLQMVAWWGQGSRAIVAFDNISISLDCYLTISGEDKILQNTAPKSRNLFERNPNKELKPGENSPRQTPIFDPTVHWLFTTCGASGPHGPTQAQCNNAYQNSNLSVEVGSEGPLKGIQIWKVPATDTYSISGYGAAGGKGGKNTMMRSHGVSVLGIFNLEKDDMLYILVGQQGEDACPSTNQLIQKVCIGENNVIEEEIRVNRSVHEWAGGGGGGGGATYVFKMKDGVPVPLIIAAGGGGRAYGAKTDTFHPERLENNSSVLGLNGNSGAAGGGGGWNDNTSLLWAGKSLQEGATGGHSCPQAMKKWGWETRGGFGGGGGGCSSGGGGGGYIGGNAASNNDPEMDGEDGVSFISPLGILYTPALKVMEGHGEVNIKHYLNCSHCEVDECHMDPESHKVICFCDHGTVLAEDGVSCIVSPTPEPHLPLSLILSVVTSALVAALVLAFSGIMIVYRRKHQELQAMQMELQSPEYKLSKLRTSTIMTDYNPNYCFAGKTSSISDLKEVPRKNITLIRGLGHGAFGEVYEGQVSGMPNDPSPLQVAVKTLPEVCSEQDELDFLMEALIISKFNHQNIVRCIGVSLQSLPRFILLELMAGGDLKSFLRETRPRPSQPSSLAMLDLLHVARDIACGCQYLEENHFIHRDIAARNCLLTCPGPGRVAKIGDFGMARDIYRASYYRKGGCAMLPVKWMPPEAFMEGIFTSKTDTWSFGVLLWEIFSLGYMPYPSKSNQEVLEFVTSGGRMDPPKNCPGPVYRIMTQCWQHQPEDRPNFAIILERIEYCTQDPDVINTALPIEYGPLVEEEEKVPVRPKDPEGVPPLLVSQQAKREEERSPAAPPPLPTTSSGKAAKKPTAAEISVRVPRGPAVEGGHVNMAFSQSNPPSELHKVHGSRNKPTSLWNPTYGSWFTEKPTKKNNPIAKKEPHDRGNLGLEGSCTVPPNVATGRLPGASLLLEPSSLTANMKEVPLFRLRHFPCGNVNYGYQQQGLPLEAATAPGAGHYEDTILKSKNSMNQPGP
Assay: Kinase inhibitory activity (33P-ATP, filtration-binding method, Reaction Biology Corp.)
Format: biochemical
Details: read-out: Half maximal inhibitory concentration IC50 for kinases, ALK
Below: a set of entries, each annotated with reported IC50.
readout: IC50 (nM)

1) C[C@@H]1COC[C@@H]2c3cc(F)cnc3OCC3(CC3)NC(=O)c3cnn4ccc(nc34)N12; 901
2) C[C@H]1CNC(=O)c2cnn3ccc(nc23)N2CCOC[C@@H]2c2cc(F)cnc2O1 [WX004B]; 134
3) O=C1N[C@@H]2COC[C@@H]2Oc2ncc(F)cc2[C@H]2COCCN2c2ccn3ncc1c3n2 [WX005A]; 103
4) O=C1NC2(CC2)COc2ccc(F)cc2C2CCCCN2c2ccn3ncc1c3n2 (single isomer, unassigned) [WX002A]; 18.5

====

Target: Ba/F3 LMNA-NTRK1-WT (Homo sapiens, UniProt P04629)
Construct: fused on or other part: N-terminal part of LMNA as fusion partner (part of the key); P02545 (Prelamin-A/C)
Sequence (P04629 whole entry, change not shown, the tested form may be a part): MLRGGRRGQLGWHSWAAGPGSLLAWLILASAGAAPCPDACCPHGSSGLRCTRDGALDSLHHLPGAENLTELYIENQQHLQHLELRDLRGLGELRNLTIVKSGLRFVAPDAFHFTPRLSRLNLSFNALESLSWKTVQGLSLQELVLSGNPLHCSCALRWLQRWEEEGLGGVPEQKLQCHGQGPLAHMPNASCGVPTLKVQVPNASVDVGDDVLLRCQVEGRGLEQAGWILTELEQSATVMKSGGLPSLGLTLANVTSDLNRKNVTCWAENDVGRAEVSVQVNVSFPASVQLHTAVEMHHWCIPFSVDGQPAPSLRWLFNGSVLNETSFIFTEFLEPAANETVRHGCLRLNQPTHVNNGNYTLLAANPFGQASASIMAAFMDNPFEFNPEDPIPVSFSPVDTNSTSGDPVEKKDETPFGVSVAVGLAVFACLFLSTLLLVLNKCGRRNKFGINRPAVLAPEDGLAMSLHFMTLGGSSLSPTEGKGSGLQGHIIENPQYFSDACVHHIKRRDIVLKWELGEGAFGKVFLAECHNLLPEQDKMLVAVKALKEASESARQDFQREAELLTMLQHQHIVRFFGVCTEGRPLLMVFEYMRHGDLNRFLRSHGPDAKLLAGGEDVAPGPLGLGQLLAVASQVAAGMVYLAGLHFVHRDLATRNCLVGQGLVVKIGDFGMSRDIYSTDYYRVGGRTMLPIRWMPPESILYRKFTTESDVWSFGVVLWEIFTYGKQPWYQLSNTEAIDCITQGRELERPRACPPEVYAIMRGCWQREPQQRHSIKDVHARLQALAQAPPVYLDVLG
Experiment: Inhibitory activity against cell proliferation (CellTiter-Glo, 72 hours)
Assay type: cell-based
Conditions: read-out: Half maximal inhibitory concentration IC50 of cells, Ba/F3 LMNA-NTRK1-WT
readout: GI50 (nM)

1) O=C1NC2(CC2)COc2ncc(F)cc2[C@H]2CCOCCN2c2ccn3ncc1c3n2 [WX009A]; 1
2) C[C@@H]1COC[C@@H]2c3cc(F)cnc3OCC3(CC3)NC(=O)c3cnn4ccc(nc34)N12; 0.9
3) O=C1N[C@@H]2COC[C@@H]2Oc2ncc(F)cc2C2COCCN2c2ccn3ncc1c3n2 (some centres unmarked) [WX005A]; 0.7
4) O=C1NC2(CC2)COc2ccc(F)cc2C2CCCCN2c2ccn3ncc1c3n2 (single isomer, unassigned) [WX002A]; 0.2
5) C[C@@H]1COC[C@@H]2c3cc(F)cnc3O[C@@H](C)CNC(=O)c3cnn4ccc(nc34)N12; 1.6

====

Biological target: BaF3 LMNA-NTRK1-G667A (Homo sapiens, UniProt P04629, G667A, cells depend on it)
Construct: fused on or other part: N-terminal part of LMNA as fusion partner (part of the key); P02545 (Prelamin-A/C)
Sequence (P04629 whole entry G667A, the tested form may be a part): as the sequence (P04629 whole entry, change not shown, the tested form may be a part) above, with G667A counted along it
Test: Inhibitory activity against cell proliferation (CellTiter-Glo, 72 hours)
Type: cell-based
Conditions: read-out: Half maximal inhibitory concentration IC50 of cells, BaF3 LMNA-NTRK1-G667A
Below: a set of entries, each annotated with reported GI50.
readout: GI50 (nM)

1) O=C1N[C@@H]2COC[C@@H]2Oc2ncc(F)cc2C2COCCN2c2ccn3ncc1c3n2 (stereo partly shown) [WX005A]; 3.8
2) O=C1NC2(CC2)COc2ncc(F)cc2C2COCCN2c2ccn3ncc1c3n2 (single isomer, unassigned) [WX001B]; 0.8
3) C[C@H]1CNC(=O)c2cnn3ccc(nc23)N2CCOC[C@@H]2c2cc(F)cnc2O1 [WX004B]; 3.9
4) C[C@@H]1CCc2ncc(F)cc2[C@H]2CCCN2c2ccn3ncc(c3n2)C(=O)N1 [LOXO-195, reference compound]; 24.4

====

Test: Pharmacokinetic test of compounds in rats (plasma, LC/MS/MS)
Assay type: in vivo, male SD rats
Details: IV, 3 mg/kg
Protocol: Experimental purpose: male SD rats aged 7-9 weeks were selected as test animals, and the drug concentrations of the compounds in plasma at different time points after single intravenous injection (IV) and intragastric administration (PO) of the compounds were measured by an LC/MS/MS method, so that the pharmacokinetic behavior of the compounds disclosed herein in rats was studied, and the pharmacokinetic characteristic of the compounds was evaluated. […]
readout: Apparent clearance Cl (mL/min/kg)

1. C[C@H]1CNC(=O)c2cnn3ccc(nc23)N2CCOC[C@@H]2c2cc(F)cnc2O1 [WX004B]; 30.9
2. O=C1NC2(CC2)COc2ncc(F)cc2C2COCCN2c2ccn3ncc1c3n2 (single isomer, unassigned) [WX001B]; 19.7
3. C[C@@H]1COC[C@@H]2c3cc(F)cnc3O[C@@H](C)CNC(=O)c3cnn4ccc(nc34)N12; 44.0
4. O=C1NC2(CC2)COc2ncc(F)cc2[C@H]2CCOCCN2c2ccn3ncc1c3n2 [WX009A]; 19.0
5. C[C@@H]1COc2ncc(F)cc2[C@H]2COC[C@@H](C)N2c2ccn3ncc(c3n2)C(=O)N1; 32.9
6. O=C(Nc1cnn2ccc(N3CCC[C@@H]3c3cc(F)ccc3F)nc12)N1CC[C@H](O)C1 [LOXO-101, larotrectinib, reference compound]; 45.6

====

Below: a set of entries, each annotated with reported GI50.
Molecular target: BaF3 LMNA-NTRK1-G667A (Homo sapiens, UniProt P04629, G667A, cells depend on it)
Construct: fused on or other part: N-terminal part of LMNA as fusion partner (part of the key); P02545 (Prelamin-A/C)
Assay: Inhibitory activity against cell proliferation (CellTiter-Glo, 72 hours)
Format: cell-based
Details: read-out: Half maximal inhibitory concentration IC50 of cells, BaF3 LMNA-NTRK1-G667A
readout: GI50 (nM)

1. C[C@@H]1COC[C@@H]2c3cc(F)cnc3O[C@@H](C)CNC(=O)c3cnn4ccc(nc34)N12 [WX008]; 2
2. C[C@@H]1COC[C@@H]2c3cc(F)cnc3OCC3(CC3)NC(=O)c3cnn4ccc(nc34)N12 [WX007]; 1.2
3. O=C1NC2(CC2)COc2ncc(F)cc2[C@H]2CCOCCN2c2ccn3ncc1c3n2 [WX009A]; 7.3
4. C[C@@H]1COc2ncc(F)cc2[C@H]2COC[C@@H](C)N2c2ccn3ncc(c3n2)C(=O)N1 [WX006]; 2

====

Target: TrkA (Homo sapiens)
Construct: purchased Reaction Biology Corp
Sequence (P04629 33-796): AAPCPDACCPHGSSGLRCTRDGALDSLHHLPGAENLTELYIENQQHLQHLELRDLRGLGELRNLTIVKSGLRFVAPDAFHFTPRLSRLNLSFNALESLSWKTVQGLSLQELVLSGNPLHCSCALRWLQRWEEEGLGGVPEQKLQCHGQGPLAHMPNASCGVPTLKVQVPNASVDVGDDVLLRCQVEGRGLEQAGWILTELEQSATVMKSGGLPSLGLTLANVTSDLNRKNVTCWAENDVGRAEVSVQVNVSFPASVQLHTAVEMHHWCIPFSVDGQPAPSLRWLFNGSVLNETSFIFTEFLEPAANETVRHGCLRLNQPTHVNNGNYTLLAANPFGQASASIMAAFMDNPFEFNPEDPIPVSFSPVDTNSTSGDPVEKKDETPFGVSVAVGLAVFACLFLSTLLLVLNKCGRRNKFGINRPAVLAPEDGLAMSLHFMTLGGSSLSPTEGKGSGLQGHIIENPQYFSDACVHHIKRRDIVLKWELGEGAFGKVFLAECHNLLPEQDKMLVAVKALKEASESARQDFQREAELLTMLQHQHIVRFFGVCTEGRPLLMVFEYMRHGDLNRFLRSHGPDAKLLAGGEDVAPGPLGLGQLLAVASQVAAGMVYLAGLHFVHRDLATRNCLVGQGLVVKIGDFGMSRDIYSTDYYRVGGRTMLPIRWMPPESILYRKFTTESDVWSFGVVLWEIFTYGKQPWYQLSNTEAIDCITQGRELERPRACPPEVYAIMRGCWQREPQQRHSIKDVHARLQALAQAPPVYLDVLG
Assay: Kinase inhibitory activity (33P-ATP, filtration-binding method, Reaction Biology Corp.)
Type: biochemical
Settings: read-out: Half maximal inhibitory concentration IC50 for kinases, TrkA
Below: a set of entries, each annotated with reported log10 of IC50.
readout: log10 of IC50 (log10 of the value in nM)

1. C[C@@H]1COC[C@@H]2c3cc(F)cnc3O[C@@H](C)CNC(=O)c3cnn4ccc(nc34)N12; -0.15
2. O=C1NC2(CC2)COc2ccc(F)cc2[C@@H]2CCCCN2c2ccn3ncc1c3n2 [WX002B]; 2.72
3. O=C1NC2(CC2)COc2ncc(F)cc2[C@H]2CCOCCN2c2ccn3ncc1c3n2 [WX009A]; 0.26
4. C[C@H]1CNC(=O)c2cnn3ccc(nc23)N2CCOC[C@H]2c2cc(F)cnc2O1 [WX004A]; 2.64
5. O=C1NC2(CC2)CNc2ncc(F)cc2C2COCCN2c2ccn3ncc1c3n2 (single isomer, unassigned) [WX010A]; 0.61
6. C[C@@H]1COC[C@@H]2c3cc(F)cnc3OCC3(CC3)NC(=O)c3cnn4ccc(nc34)N12; -0.22
7. O=C1NC2(CC2)COc2ccc(F)cc2C2CCCCN2c2ccn3ncc1c3n2 (single isomer, unassigned) [WX002A]; 0.51
8. C[C@@H]1COc2ncc(F)cc2[C@H]2COC[C@@H](C)N2c2ccn3ncc(c3n2)C(=O)N1; -0.15
9. O=C1N[C@@H]2COC[C@@H]2Oc2ncc(F)cc2[C@H]2COCCN2c2ccn3ncc1c3n2 [WX005A]; 0.67
10. C[C@H]1CNC(=O)c2cnn3ccc(nc23)N2CCOC[C@@H]2c2cc(F)cnc2O1 [WX004B]; 0.43

====

Experiment: Pharmacokinetic test of compounds in rats (plasma, LC/MS/MS)
Assay type: in vivo, male SD rats
Conditions: IV, 3 mg/kg
Below: a set of entries, each annotated with reported Apparent volume of distribution Vd.
readout: Apparent volume of distribution Vd (L/kg)

1) C[C@@H]1COc2ncc(F)cc2[C@H]2COC[C@@H](C)N2c2ccn3ncc(c3n2)C(=O)N1 [WX006]; 1.3
2) O=C1NC2(CC2)COc2ncc(F)cc2[C@H]2CCOCCN2c2ccn3ncc1c3n2 [WX009A]; 1.3
3) C[C@H]1CNC(=O)c2cnn3ccc(nc23)N2CCOC[C@@H]2c2cc(F)cnc2O1 [WX004B]; 1.4
4) C[C@@H]1COC[C@@H]2c3cc(F)cnc3O[C@@H](C)CNC(=O)c3cnn4ccc(nc34)N12 [WX008]; 1.4

====

Below: a set of entries, each annotated with reported IC50.
Molecular target: ALK (Homo sapiens)
Construct: purchased Reaction Biology Corp
Assay: Kinase inhibitory activity (33P-ATP, filtration-binding method, Reaction Biology Corp.)
Format: biochemical
Conditions: read-out: Half maximal inhibitory concentration IC50 for kinases, ALK
readout: IC50

1. C[C@@H]1CCc2ncc(F)cc2[C@H]2CCCN2c2ccn3ncc(c3n2)C(=O)N1 [LOXO-195, reference compound]; 274 nM
2. O=C1NC2(CC2)CNc2ncc(F)cc2C2COCCN2c2ccn3ncc1c3n2 (single isomer, unassigned) [WX010A]; > 1000 nM
3. O=C1NC2(CC2)COc2ncc(F)cc2[C@H]2CCOCCN2c2ccn3ncc1c3n2 [WX009A]; 51.3 nM
